Molecular target: CD63 on cells (human) (UniProt P08962)
Sequence (P08962 2-238): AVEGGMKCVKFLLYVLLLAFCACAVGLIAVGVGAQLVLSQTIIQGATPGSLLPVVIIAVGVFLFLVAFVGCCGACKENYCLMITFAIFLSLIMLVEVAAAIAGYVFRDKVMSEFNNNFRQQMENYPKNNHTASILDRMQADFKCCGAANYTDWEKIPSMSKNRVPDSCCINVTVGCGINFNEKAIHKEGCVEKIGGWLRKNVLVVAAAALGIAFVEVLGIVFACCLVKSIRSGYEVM
Assay: cell-based or functional assay
Recorded IC50 of cytotoxicity, SK-OV-3 cells (CellTiter-GLO, 4 days) by entry
Quantity: IC50 of cytotoxicity, SK-OV-3 cells (CellTiter-GLO, 4 days) (µg/mL)

{"Binder": "bsHER2xCD63-Duo3 with CD63 variant Y46 (bispecific antibody, part only; not given: HER2 arm (IgG1-153) VH and VL, V domains shown, part only) VH: EVQLQQSGPELVKPGASVKMSCKASGHTFTSYVMHWVRQTPGQGLEWIGYITPYNDGTKYNEKFKGKATLTSDKSSSTAYMELSSLTSEDSAVYYCVGGDNYYYAMDYWGQGTSVTVSAA VL: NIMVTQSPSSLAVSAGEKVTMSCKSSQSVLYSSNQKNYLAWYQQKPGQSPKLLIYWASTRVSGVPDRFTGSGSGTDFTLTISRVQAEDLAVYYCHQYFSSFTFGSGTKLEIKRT", "Result number": 0.045}
{"Binder": "bsCD63xb12-Duo3 with CD63 variant Y127 (bispecific antibody, part only; not given: b12 control arm VH and VL, V domains shown, part only) VH: EVQLQQSGPELVKPGASVKMSCKASGYTFTSYVMHWVRQTPGQGLEWIGYITPYNDGTKYNEKFKGKATLTSDKSSSTAYMELSSLTSEDSAVYYCVGGDNYYYAMDHWGQGTSVTVSAA VL: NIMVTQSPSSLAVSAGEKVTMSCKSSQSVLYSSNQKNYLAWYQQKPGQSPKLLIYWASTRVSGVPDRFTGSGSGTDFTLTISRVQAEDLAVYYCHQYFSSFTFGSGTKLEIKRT", "Result number": 1.08}
{"Binder": "bsCD63xb12-Duo3 with CD63 variant T71H (bispecific antibody, part only; not given: b12 control arm, V domains shown, part only) VH: EVQLQQSGPELVKPGASVKMSCKASGYTFTSYVMHWVRQTPGQGLEWIGYIHPYNDGTKYNEKFKGKATLTSDKSSSTAYMELSSLTSEDSAVYYCVGGDNYYYAMDYWGQGTSVTVSAA VL: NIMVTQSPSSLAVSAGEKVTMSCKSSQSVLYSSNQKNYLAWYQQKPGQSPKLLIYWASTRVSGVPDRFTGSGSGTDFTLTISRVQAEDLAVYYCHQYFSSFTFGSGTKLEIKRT", "Result number": 3.8}
{"Binder": "bsHER2xCD63N74H-Duo3 (bispecific antibody, part only; not given: HER2 arm, V domains shown, part only) VH: EVQLQQSGPELVKPGASVKMSCKASGYTFTSYVMHWVRQTPGQGLEWIGYITPYHDGTKYNEKFKGKATLTSDKSSSTAYMELSSLTSEDSAVYYCVGGDNYYYAMDYWGQGTSVTVSAA VL: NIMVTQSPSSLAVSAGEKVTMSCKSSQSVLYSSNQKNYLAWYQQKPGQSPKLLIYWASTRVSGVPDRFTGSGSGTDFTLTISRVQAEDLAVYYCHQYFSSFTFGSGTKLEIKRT", "Result number": 0.037}
{"Binder": "bsCD63xb12-Duo3 with CD63 variant LS52 (bispecific antibody, part only; not given: b12 control arm VH and VL, V domains shown, part only) VH: EVQLQQSGPELVKPGASVKMSCKASGYTFTSYVMHWVRQTPGQGLEWIGYITPYNDGTKYNEKFKGKATLTSDKSSSTAYMELSSLTSEDSAVYYCVGGDNYYYAMDYWGQGTSVTVSAA VL: NIMVTQSPSSLAVSAGEKVTMSCKSSQSVLYHSNQKNYLAWYQQKPGQSPKLLIYWASTRVSGVPDRFTGSGSGTDFTLTISRVQAEDLAVYYCHQYFSSFTFGSGTKLEIKRT", "Result number": 1.13}
